# Lookup of reported cytotoxicity at 10 µM keyed by entry
assay: Toxicity liver stage against HepG2, at 10uM; assay type: cell-based; parameters: test concentration 10 uM, cell line HepG2-A16-CD81EGFP; details: human, HepG2-A16-CD81EGFP cells; read-out: INHIBITION

[
  {
    "MOLECULE": "Cn1cc(C(=O)N2CCCC(n3cccn3)C2)c2ccccc21 (stereo unspecified)",
    "UNIT_STRING": "%",
    "cytotoxicity at 10 µM": 5.2
  },
  {
    "MOLECULE": "CCN1C(=O)C2(CCOCC2)c2cc(NC(=O)c3cccn3C)ccc21",
    "UNIT_STRING": "%",
    "cytotoxicity at 10 µM": -2.13
  },
  {
    "MOLECULE": "Cc1nc2cc(C(=O)N3C[C@@H](NS(C)(=O)=O)[C@H](C(C)C)C3)ccc2[nH]1",
    "UNIT_STRING": "%",
    "cytotoxicity at 10 µM": -4.47
  },
  {
    "MOLECULE": "Cc1ccc(C2(C(=O)NCCCn3cccn3)CCOCC2)cc1",
    "UNIT_STRING": "%",
    "cytotoxicity at 10 µM": 9.73
  },
  {
    "MOLECULE": "CCOCCCC(=O)Nc1ccc(OCc2noc(C3CC3)n2)cc1",
    "UNIT_STRING": "%",
    "cytotoxicity at 10 µM": 44.4
  },
  {
    "MOLECULE": "CCCN1CCCN(C(=O)c2oc(C)nc2C)CC1",
    "UNIT_STRING": "%",
    "cytotoxicity at 10 µM": 24.3
  },
  {
    "MOLECULE": "COc1cc(C(=O)NS(=O)(=O)c2cncc(Br)c2)cc(OC)c1C",
    "UNIT_STRING": "%",
    "cytotoxicity at 10 µM": 4.77
  },
  {
    "MOLECULE": "CCS(=O)(=O)N[C@@H]1CN(Cc2cc(C)on2)C[C@@H]2CCCO[C@@H]21",
    "UNIT_STRING": "%",
    "cytotoxicity at 10 µM": -6.01
  },
  {
    "MOLECULE": "CC(C)Cc1cc(NC(=O)c2ccccc2F)n(C)n1",
    "UNIT_STRING": "%",
    "cytotoxicity at 10 µM": -6.48
  },
  {
    "MOLECULE": "CCc1nc(CN2CCCC(NCc3nnc(C4CC4)o3)C2)no1 (stereo unspecified)",
    "UNIT_STRING": "%",
    "cytotoxicity at 10 µM": -5.73
  },
  {
    "MOLECULE": "CCN(CC1CCOC1)C(=O)Nc1ccc(OCC(F)(F)F)nc1 (stereo unspecified)",
    "UNIT_STRING": "%",
    "cytotoxicity at 10 µM": -11.3
  }
]
